Tested on: MDA-MB-435 melanoma
assay.text: NCI-60 one-dose screen, 48 h (100 = growth as untreated, 0 = no growth, -100 = all killed)
recorded.conditions: 10 µM unless noted
Compounds without any hit were thinned out: in the full panel of roughly 83,000, 20% have a hit. The source made the active and inactive calls. How the source made its calls: active means growth percent below 10; inactive means the rest.
Quick reference for growth among some compounds

# annotated cases, reported growth shown
| compound | measurement.kind | value.observed |
| --- | --- | --- |
| COc1cc(C2CC(c3ccc(Cl)cc3)=NN2c2ccc(Cl)cc2)cc(OC)c1OC (stereo not given) | growth | 93.3% (inactive) |
| CO[C@H]1C[C@@H]2CC[C@@H](C)[C@@](O)(O2)C(=O)C(=O)N2CCCC[C@H]2C(=O)O[C@H]([C@H](C)C[C@@H]2CC[C@@H](OCCO)[C@H](OC)C2)CC(=O)[C@H](C)/C=C(\C)[C@@H](O)[C@H](OC)C(=O)[C@H](C)C[C@H](C)\C=C/C=C/C=C/1C | growth | 56.4% (inactive) |
| CC(C)Nc1cc(-c2c[nH]c(C(=O)N[C@H](CO)c3cccc(Cl)c3)c2)c(Cl)cn1 | growth | 21.7% (inactive) |
| COC(=O)[C@@H](C)CNS(=O)(=O)N(c1cc(C(F)(F)F)cc(C(F)(F)F)c1)C1CCN(Cc2ccc(F)cc2)CC1 | growth | 76.8% (inactive) |
| COc1cc2c(cc1O)c(=O)n(CCN(C)C)c1c3cc4c(cc3ncc21)OCO4 | growth | -59.7% (active) |

We now examine a further compound.
Req: Quickly give me recorded growth for "Nc1c(Cl)cccc1[N+](=O)[O-]"
Resp: 105% (inactive)

----------
Tested on: SW-620 colon
assay.text: NCI-60 one-dose screen, 48 h
recorded.conditions: 10 µM unless noted
This is part of a sample that, as a whole, favours compounds with a hit. Of some 83,000 tested, about 20% had one in any assay. Calls of active or inactive are those of the source. How the source made its calls: active means growth percent below 10; inactive means the rest.
Could you please pick one outcome from this set? active, inactive

Example entries begin here.
| test.smiles | class |
| --- | --- |
| N#Cc1cc2[nH]c3ccc(OC(F)(F)F)cc3c2oc1=O | inactive |
| COc1cc(N2CCC(N(C)C)CC2)ccc1Nc1ncc(Cl)c(Nc2ccccc2P(C)(C)=O)n1 | active |
| CCCNC(=O)c1cn2ncnc(Nc3cc(C(=O)NC4CC4)ccc3C)c2c1C | inactive |

Req: Lab log entry: "CO[C@H]1C[C@@H]2CC[C@@H](C)[C@@](O)(O2)C(=O)C(=O)N2CCCC[C@H]2C(=O)O[C@H]([C@H](C)C[C@@H]2CC[C@@H](O)[C@H](OC)C2)CC(=O)[C@H](C)/C=C(\C)[C@@H](O)[C@@H](OC)C(=O)[C@H](C)C[C@H](C)\C=C/C=C/C=C/1C" — outcome as called in the assay?
Resp: inactive

----------
System: HCT-116 colon
assay.text: NCI-60 one-dose screen, 48 h
recorded.conditions: 10 µM unless noted
The panel holds about 83,000 compounds, 20% with a hit somewhere; the sample as a whole holds those more often. The source made the active and inactive calls. The calls were made as follows: active = growth percent below 10; inactive = the rest.
Could you please pick one outcome from this set? active, inactive

| molecule | class |
| --- | --- |
| CNC(=O)c1nn(C)c2c1C(C)(C)Cc1cnc(Nc3ccc(N4CCN(C)CC4)cc3)nc1-2 | active |
| CNC(=O)c1cnc(C)nc1-c1cc(C(C)(C)C)c(O)c(C(C)(C)C)c1 | inactive |
| Cc1cc(N(CCNc2ccnc3cc(Cl)ccc23)Cc2ccc3c(c2)OCO3)nc(N2CCCC2)n1 | active |
| Cc1cccc(C)c1N1C(c2ccccc2)=NNC12C=CC(=O)c1c(O)cccc12 (stereo not drawn) | inactive |
| Cc1cc(NCC(=O)Nc2ccc(-c3nc4ccccc4s3)cc2)no1 | inactive |
| Cc1[nH]c(/C=C2\C(=O)Nc3ccc(F)cc32)c(C)c1C(=O)NC[C@H](O)CN1CCOCC1 | inactive |
| COc1cnc2c(c1)C(=O)c1c-2n(CCCN2CCOCC2)c(=O)c2cc(Cl)ccc12 | active |
| O=C1/C(=C\c2cccc(OCCCCCOc3ccc(Cl)cc3)c2)N=C2SCCCN12 | inactive |

Req: Lab log entry: "CC(C)OP(=O)(CCC(=O)c1c[nH]c2ccccc12)OC(C)C" — outcome as called in the assay?
Resp: inactive

Req: Lab log entry: "c1cc(OCCN2CCCCC2)cc(-c2n[nH]c3ccc(-c4ncn[nH]4)cc23)c1" — outcome as called in the assay?
Resp: inactive

Req: Lab log entry: COC[C@@H](C)n1c(C2CCOCC2)nc2c1C1C=C(OC)C(c3c(C)noc3C)=CC1N=C2 (stereo partly drawn) — outcome as called in the assay?
Resp: inactive

Req: Lab log entry: CC(CCCC(=O)O)c1ccoc1 (stereo not drawn) — outcome as called in the assay?
Resp: inactive

Req: Lab log entry: "Clc1nc(Cl)c2ncn(C/C=C\Cn3cnc4c(Cl)nc(Cl)nc43)c2n1" — outcome as called in the assay?
Resp: active

Req: Lab log entry: COc1ccc(COc2cc3oc(=O)c4cc(C(C)O)ccc4c3cc2OC)cc1 (stereo not drawn) — outcome as called in the assay?
Resp: inactive

Req: Lab log entry: O=C1CC(c2cccc(F)c2)c2c(n[nH]c2-c2ccc(Cl)cc2)N1 (stereo not drawn) — outcome as called in the assay?
Resp: inactive

Req: Lab log entry: "NC1=Nc2ccccc2N(O)N1" — outcome as called in the assay?
Resp: inactive

Req: Lab log entry: "COc1ccc2c(c1)cn1c3ccc(O)cc3nc(N)c21" — outcome as called in the assay?
Resp: inactive

----------
System: NCI/ADR-RES ovarian
assay.text: NCI-60 one-dose screen, 48 h (100 = growth as untreated, 0 = no growth, -100 = all killed)
recorded.conditions: 10 µM unless noted
The panel holds about 83,000 compounds, 20% with a hit somewhere; the sample as a whole holds those more often.
Quick reference for growth among some compounds
Number in %, nothing else.

# annotated cases, reported growth shown
| test.smiles | tgt | growth (%) |
| --- | --- | --- |
| Nc1ccc(S(=O)(=O)O)c2cc(S(=O)(=O)O)cc(O)c12 | NCI/ADR-RES ovarian | 105 |
| O=S1(=O)OC(c2ccc(O)c(Cl)c2)(c2ccc(O)c(Cl)c2)c2ccccc21 | NCI/ADR-RES ovarian | 105 |
| COc1cc(C(=O)NNC(=O)c2ccc(NC(=O)CCl)cc2)cc(OC)c1OC | NCI/ADR-RES ovarian | 102 |

Req: Quickly give me recorded growth for "COC(=O)c1ccc2c(C(=Nc3ccc(N(C)C(=O)CN4CCN(C)CC4)cc3)c3ccccc3)c(O)[nH]c2c1"
Resp: 82.2

Req: Quickly give me recorded growth for "C=C1C[C@H](O)[C@H](Br)C(C)(C)[C@@]12CCC(C)=C(Cl)C2"
Resp: 22.1

----------
System: SK-MEL-5 melanoma
assay.text: NCI-60 one-dose screen, 48 h
recorded.conditions: 10 µM unless noted
About 83,000 compounds went through this panel and 20% of them were active in at least one assay; those are over-represented in the sample as a whole. Calls of active or inactive are those of the source. Rule for the calls: active = growth percent below 10; inactive = the rest.
Could you please pick one outcome from this set? active, inactive

Example entries begin here.
| compound | class |
| --- | --- |
| COc1cc(NC2CCC(=O)N2c2ccc(Cl)cc2Cl)cc(OC)c1OC (stereo not given) | inactive |
| CC(C)(O)CC(=O)NCCn1ccc2ncnc(Nc3ccc(Oc4cccc(C(F)(F)F)c4)c(Cl)c3)c21 | active |
| CC(=O)O[C@]1(C)C[C@H](O)[C@]2(O)C=CO[C@H](O[C@@H]3O[C@H](CO)[C@@H](O)[C@H](O)[C@H]3O)[C@@H]21 | inactive |

Req: Lab log entry: "C[C@@H](Oc1cc(C(=O)Nc2ccc(C(=O)N3CCN(C)CC3)cc2)nnc1N)c1c(Cl)ccc(F)c1Cl" — outcome as called in the assay?
Resp: inactive

Req: Lab log entry: COc1cccc2cc(-c3nc(C4CCC(C(=O)O)CC4)n4ncnc(N)c34)[nH]c12 (stereo not given) — outcome as called in the assay?
Resp: active

----------
System: K-562 leukemia
assay.text: NCI-60 one-dose screen, 48 h (100 = growth as untreated, 0 = no growth, -100 = all killed)
recorded.conditions: 10 µM unless noted
This is part of a sample that, as a whole, favours compounds with a hit. Of some 83,000 tested, about 20% had one in any assay.
growth vs 10%: less than gives true; not less than gives false.

| molecule | class |
| --- | --- |
| c1cc(OCCN2CCCCC2)cc(-c2n[nH]c3ccc(-c4ncn[nH]4)cc23)c1 | false |

Req: Determine if "Cc1cn(-c2cc(NC(=O)c3ccc(C)c(Nc4nccc(-c5cnccn5)n4)c3)cc(C(F)(F)F)c2)cn1" shows growth strictly lower than 10%.
Resp: true

Req: Determine if "CCCCCCCC(=O)SCC/C=C/[C@@H]1CC(=O)NCc2cc(ccn2)C2=N[C@@](C)(CS2)C(=O)N[C@@H](C(C)C)C(=O)O1" shows growth strictly lower than 10%.
Resp: false

Req: Determine if "Brc1ccc([I+]c2ccc(Br)cc2)cc1" shows growth strictly lower than 10%.
Resp: true

Req: Determine if "CC[C@@H]1C(=O)N(C)c2cnc(Nc3ccc(C(=O)NC4CCN(C)CC4)cc3OC)nc2N1C1CCCC1" shows growth strictly lower than 10%.
Resp: true

Req: Determine if "CCOC(=O)C1=C(C)N=C2Sc3cc(OC(F)(F)F)ccc3N2[C@H]1c1ccccn1" shows growth strictly lower than 10%.
Resp: false

Req: Determine if "CCc1nc2cc(F)c(/C=C/C(=O)NO)cc2c(=O)n1CCc1ccccc1" shows growth strictly lower than 10%.
Resp: true

Req: Determine if "C[C@@H](Oc1cc(-n2cnc3ccc(CN4CCN(C)CC4)cc32)sc1C(N)=O)c1ccccc1C(F)(F)F" shows growth strictly lower than 10%.
Resp: true

Req: Determine if "Cc1cc2c(F)c(Oc3ncnn4cc(OC[C@@H](C)OC(=O)[C@H](C)N)c(C)c34)ccc2[nH]1" shows growth strictly lower than 10%.
Resp: false

Req: Determine if CC(C)(C)C(=O)OCOP(=O)(OCOC(=O)C(C)(C)C)C1CCCN(OC(=O)c2ccccc2)C1=O (configuration not stated) shows growth strictly lower than 10%.
Resp: true

Req: Determine if "COc1cccc(Nc2ncnn3ccc(CN4CC[C@@H](N)[C@H](O)C4)c23)c1" shows growth strictly lower than 10%.
Resp: true

Req: Determine if "COc1ccc2c(c1OC)C(=O)O[C@@H]2[C@H]1c2c(c(C#CC#Cc3ccc(F)c(F)c3)c3c(c2OC)OCO3)CCN1C" shows growth strictly lower than 10%.
Resp: false

Req: Determine if "Cn1nccc1Nc1nccc(-c2ccn([C@H](CO)c3ccc(Cl)c(F)c3)c(=O)c2)n1" shows growth strictly lower than 10%.
Resp: false

Req: Determine if "CCN1CCN(Cc2ccc(NC(=O)Nc3nc(-c4cc(OC)c(OC)c(OC)c4)cs3)cc2C(F)(F)F)CC1" shows growth strictly lower than 10%.
Resp: true

Req: Determine if "COc1cc(-c2nc(C(=O)Nc3ccc(C)cc3)nn2-c2ccc(F)c(F)c2)cc(OC)c1OC" shows growth strictly lower than 10%.
Resp: false

Req: Determine if N#CC1(C#N)C(c2cccs2)NC(c2cccs2)C1(C#N)C#N (configuration not stated) shows growth strictly lower than 10%.
Resp: false

Req: Determine if "Cc1ccc(-n2nc(C(C)(C)C)cc2NC(=O)NCc2cc(F)ccc2Oc2ccc3c(cnn3CCO)c2)cc1" shows growth strictly lower than 10%.
Resp: true
